pIC50: −log10 of the molar value.
Heads up, these compounds all have pIC50 values measured for acyl-CoA:cholesterol acyltransferase (ACAT) (Oryctolagus cuniculus, UniProt G1SFD9).
OBSERVED_PROPERTY: pIC50

Look over these answered cases.
>  <COMPOUND>
CCCCCCCCCCC(C)(C)C(=O)Nc1c(C)cccc1OCC

>  <OBSERVED_PROPERTY>
pIC50

>  <NUMERIC_RESULT>
6.64

$$$$
>  <COMPOUND>
CCCCCCCCCCCCC(C)C(=O)NC(C)c1ccccn1 (stereo not shown)

>  <OBSERVED_PROPERTY>
pIC50

>  <NUMERIC_RESULT>
6.10

$$$$
>  <COMPOUND>
CCCCCCCCCCCCC(CC)C(=O)Nc1c(OC)ncnc1OC (stereo not shown)

>  <OBSERVED_PROPERTY>
pIC50

>  <NUMERIC_RESULT>
6.59

$$$$

(a) CCCCCCCCCCC(C)C(=O)NC(C)c1ccccn1 (stereo not shown)
(b) CCCCCCCCCCC1(C(=O)Nc2c(OC)cc(OC)cc2OC)CCCC1
(c) CCCCCCCCCCC(Cc1ccccc1)C(=O)NC(C)c1ccccn1 (stereo not shown)
(d) CCCCCCCC/C=C\CCCCCCC(C)C(=O)Nc1c(OC)cc(OC)cc1OC (stereo not shown)
Qu. Task for the reader: rank each entry by its pIC50, from the minimum upward. I would appreciate it if you listed the labels in the requested order.
Ans. c, a, d, b
